Reference for the values: PubChem BioAssay

- Method: HepG2 liver cancer cell viability effects, profiling panel, resazurin fluorescence, 24 h, PK04 Diversity Set (AID 1172); also: test concentration not given here
- Test conditions: higher = more signal

- Compound: "CC(C)C[C@H]1NC(=O)CNC(=O)[C@@]23C(=O)N[C@@H](Cc4ccccc4)C2[C@H](C)[C@@]2(C)O[C@H]2C3/C=C/C/C=C\\CNC1=O (some centres not stated)"
  z-score: -0.657
- Compound: "C=CC[C@]1(C(=O)NCCN2CCOCC2)N=C(c2ccc(OCCCO)cc2)O[C@H]1c1ccccc1"
  z-score: 0.543
- Compound: "COCCOC(=O)N1C(=O)[C@@]2(c3cc(C#CCNC(N)=O)ccc31)[C@H](C(N)=O)[C@H]1C(=O)O[C@H](c3ccccc3)[C@H](c3ccccc3)N1[C@@H]2c1ccc(O)cc1"
  z-score: 0.296
- Compound: "COc1cccc(C)c1NC(=O)O[C@H]1[C@H](OC(=O)Nc2ccc3c(c2)OCO3)[C@H](OC(=O)Nc2ccc3c(c2)OCO3)[C@@H](OC)O[C@@H]1CO"
  z-score: -0.73
- Compound: "CC(C)C[C@@H]1NC(=O)[C@H]2C[C@@H](C(=O)O)[C@@H](c3cccc(OCCO)c3)N2C1=O"
  z-score: 0.109
- Compound: "O=C1O[C@H](c2ccccc2)[C@H](c2ccccc2)N2[C@H]1[C@@H](C(=O)O)[C@]1(C(=O)Nc3ccc(C#CC4(O)CCCCCC4)cc31)[C@H]2c1ccccc1OCCO"
  z-score: 1.15
- Compound: "O=C1OCCC/C=C\\[C@H]2OC34C=CCN(Cc5ccccc5)C(=O)[C@H]3N(CCO)C(=O)[C@@H]4C12 (some centres not stated)"
  z-score: -0.122

---

- Method: modulators of S6 phosphorylation in cells, primary screen, cell-based, A549, cytoblot, luminescence, serum-stimulated (AID 1158);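 also: serum-stimulated A549 lung adenocarcinoma cells; signal is phosphorylated S6 detected by cytoblot immunostaining with HRP secondary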
- Test conditions: A549 phospho-S6 cytoblot, 5 h, higher = more signal
Assign classes using reported z-score values and the ranges range A (below -0.2), range B (-0.2 to below 0.2), range C (0.2 or more), please.

- Molecule: "COCCCNC(=O)[C@@]1(CCC(=O)OC(C)(C)C)N=C(c2ccc(OCCCO)cc2)O[C@H]1c1ccccc1"
  Assigned category: "range A"
- Molecule: "C=C[C@H](OC)[C@@H](O)c1ccc(OC)c(O)c1"
  Assigned category: "range A"
- Molecule: "C[C@]1(C(=O)O)c2ccccc2C(=O)N(Cc2cc(C(F)(F)F)cc(C(F)(F)F)c2)[C@H]1c1ccc(CO)cc1"
  Assigned category: "range B"
- Molecule: "CN(C)C(=O)[C@]1(CCS(=O)(=O)c2ccccc2)N=C(c2ccc(OCCCO)cc2)O[C@@H]1c1ccccc1CN=[N+]=[N-]"
  Assigned category: "range B"
- Molecule: "C=CC[C@H](O)c1ccc(O)c(F)c1"
  Assigned category: "range B"
- Molecule: "C#CCN(C(=O)OC(C)(C)C)[C@H](CO)c1ccccc1"
  Assigned category: "range B"
- Molecule: "O=C1OCC=C[C@H]2OC34C=CCN(Cn5nnc6ccccc65)C(=O)[C@H]3N(CCO)C(=O)[C@@H]4[C@@H]12 (some centres not stated)"
  Assigned category: "range A"
- Molecule: "CC(C)C[C@@H]1NC(=O)[C@@H]2C[C@H](C(=O)NCCCCCCNC(=O)CS)[C@H](c3ccc(O)cc3)N2C1=O"
  Assigned category: "range B"
- Molecule: "COC(=O)C(CC#Cc1ccc2c(c1)[C@]1(C(=O)N2)[C@H](c2ccc(OCCO)cc2)N2[C@H](c3ccccc3)[C@H](c3ccccc3)OC(=O)[C@H]2[C@@H]1C(N)=O)C(=O)OC"
  Assigned category: "range A"
- Molecule: "CCCCCCCCCCC(O)C1C=CC2C(=O)N(C)C(=O)C2N1Nc1ccccc1 (configuration not stated)"
  Assigned category: "range A"
- Molecule: "O=C(c1ccccc1)N1Cc2ccccc2C[C@@]2(N=C(c3ccc(OCCCO)cc3)O[C@H]2c2ccccc2)C1=O"
  Assigned category: "range A"
- Molecule: "C[N+](C)(C)CCCC[C@@H]1NC(=O)[C@H]2C[C@@H](C(=O)NCCCCCN)[C@@H](c3ccc(O)cc3)N2C1=O"
  Assigned category: "range B"
- Molecule: "COCCOC(=O)N1C(=O)[C@@]2(c3cc(C#CCC(C(=O)OC)C(=O)OC)ccc31)[C@H](c1ccc(O)cc1)N1[C@H](c3ccccc3)[C@H](c3ccccc3)OC(=O)[C@H]1[C@@H]2C(=O)N1CCc2cc(OC)c(OC)cc2C1"
  Assigned category: "range B"
- Molecule: "C=CCOC(=O)[C@@H]1[C@H]2C(=O)O[C@H](c3ccccc3)[C@H](c3ccccc3)N2[C@H](c2ccc(OCCOC(=O)[C@@H]3C[C@@H]4C(=O)N[C@@H](CC(C)C)C(=O)N4[C@@H]3c3ccc(O)cc3)cc2)[C@@]12C(=O)Nc1ccc(I)cc12"
  Assigned category: "range B"
- Molecule: "CCOC(=O)C[C@H]1[C@H](OC(=O)c2ccc(-c3ccccc3)cc2)[C@@H](NC(=O)C2CCCCC2)c2cc(OCCCO)ccc2N1C(=O)Cc1ccc(OC)cc1"
  Assigned category: "range C"
- Molecule: "C[N+](C)(C)CCCC[C@@H]1NC(=O)[C@H]2C[C@@H](C(=O)O)[C@@H](c3ccc(O)cc3)N2C1=O"
  Assigned category: "range C"
- Molecule: "COC(=O)C[C@H]1O[C@]2(C(=O)N(C)c3ccccc32)[C@@H](C)[C@@H]1[Si](C)(C)c1ccccc1"
  Assigned category: "range C"
- Molecule: "O=C(NCCN1CCOCC1)[C@@H]1c2ccccc2C(=O)N(CC23CC4CC(CC(C4)C2)C3)[C@H]1c1ccc(CO)cc1"
  Assigned category: "range A"
- Molecule: "COCCOC(=O)N1C(=O)[C@@]2(c3cc(C#CCNC(N)=O)ccc31)[C@H](c1ccccc1OCCO)N1[C@H](c3ccccc3)[C@H](c3ccccc3)OC(=O)[C@H]1[C@@H]2C(=O)N1CCCCCCC1"
  Assigned category: "range A"
- Molecule: "C=CCOC(=O)[C@@H]1[C@H]2C(=O)O[C@H](c3ccccc3)[C@H](c3ccccc3)N2[C@H](c2ccc(OCCOC(=O)[C@H]3C[C@H]4C(=O)N[C@@H](CCCCN(C)C)C(=O)N4[C@H]3c3cccc(OCCO)c3)cc2)[C@@]12C(=O)Nc1ccccc12"
  Assigned category: "range A"
- Molecule: "COc1ccc([Si](C)(C)[C@@H]2[C@@H](CC(=O)N(CCO)Cc3ccccc3)O[C@]3(C(=O)N(Cc4cccc(I)c4)c4ccccc43)[C@H]2C)cc1"
  Assigned category: "range C"
- Molecule: "Cc1ccc(S[C@]2(C(=O)NC(C)C)CC(=O)N(Cc3ccccc3)[C@@H]2c2ccc(CO)cc2)cc1"
  Assigned category: "range C"
- Molecule: "CC(C)C(=C=CC[C@H](O)c1cccc(OCCO)c1)C[C@H](O)c1ccccn1"
  Assigned category: "range C"
- Molecule: "[N-]=[N+]=Nc1ccccc1C[C@]1(C(=O)N2CCCCC2)N=C(c2ccc(OCCCO)cc2)O[C@H]1c1ccccc1"
  Assigned category: "range B"
- Molecule: "C=CCOC(=O)[C@H]1[C@@H]2C(=O)O[C@@H](c3ccccc3)[C@@H](c3ccccc3)N2[C@@H](c2ccc(OCCOC(=O)[C@H]3C[C@H]4C(=O)NCC(=O)N4[C@H]3c3cccc(OCCO)c3)cc2)[C@]12C(=O)Nc1ccc(I)cc12"
  Assigned category: "range C"
- Molecule: "C=C(C)C1CN([C@H](CO)c2ccccc2)C(=O)/C1=C\\c1ccccc1 (some centres not stated)"
  Assigned category: "range C"
- Molecule: "CC[C@@H](O[Si](C#C[Si](C(C)C)(C(C)C)C(C)C)(C(C)C)C(C)C)c1cn([C@H](CO)Cc2ccccc2)nn1"
  Assigned category: "range B"

---

- Method: small-molecule binders of probe aNOTCH3, primary screen, biochemical, small-molecule microarray, 635/667 nm fluorescence (AID 1120);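 also: probe is a biotin-tagged antibody raised against NOTCH3 rather than NOTCH3 protein; score merges spot fluorescence near 667 nm with spot signal to noise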
- Test conditions: higher = more signal
Test readout: composite z-score

- Compound: "CO[C@H]1O[C@H](CO)[C@@H](OC(=O)Nc2cccc(F)c2)[C@H](OC(=O)Nc2ccc3c(c2)OCO3)[C@@H]1OC(=O)Nc1ccc2c(c1)OCO2"
  Assay value: 0.15
- Compound: "C=CCNC(=O)[C@@H]1[C@H]2C(=O)O[C@H](c3ccccc3)[C@H](c3ccccc3)N2[C@H](c2ccc(OCCO)cc2)[C@@]12C(=O)Nc1ccc(C#CCNC(N)=O)cc12"
  Assay value: -0.076
- Compound: "COc1ccc([Si](C)(C)[C@H]2[C@H](CC(=O)N(CCO)Cc3ccccc3)O[C@@]3(C(=O)N(c4ccccc4)c4ccccc43)[C@@H]2C)cc1"
  Assay value: 0.123
- Compound: "CC(C)(C)OC(=O)CC[C@]1(C(N)=O)N=C(c2ccc(OCCCO)cc2)O[C@H]1c1ccccc1N=[N+]=[N-]"
  Assay value: 0.156
- Compound: "C=CCC(OC(C)=O)[C@@H]1[C@@H](N(Cc2ccc(-c3ccccc3)cc2)C(=O)Cc2ccc(OC)cc2)c2cc(OCCCO)ccc2N1C(=O)c1ccc2ccccc2c1 (some centres undefined)"
  Assay value: -0.043
- Compound: "CC(C)C[C@@H]1NC(=O)[C@@H]2C[C@H](C(=O)NCCCCCCNC(=O)CS)[C@H](c3ccc(O)cc3)N2C1=O"
  Assay value: 0.133
- Compound: "COC(=O)[C@@]1(Cc2ccc(OC)cc2)[C@H]2c3cc(C(=O)N(C)C)n(Cc4c(CO)[nH]cc(C)c4=O)c3C[C@H]2CN1C(=O)c1ccccc1"
  Assay value: 0.23
- Compound: "O=C1NC(=O)C2C1C=CC(C(O)C(c1ccccc1)c1ccccc1)N2Nc1ccccn1 (centres undefined)"
  Assay value: 0.15
- Compound: "COC(=O)[C@@]1(Cc2ccc(F)cc2)[C@H]2c3cc(C(=O)N(C)C)n(CCF)c3C[C@H]2CN1C(=O)c1ccccc1"
  Assay value: -0.0044
- Compound: "COc1ccc(C#Cc2ccc3c(c2)[C@]2(C(=O)N3)[C@H](c3ccccc3OCCO)N3[C@H](c4ccccc4)[C@H](c4ccccc4)OC(=O)[C@H]3[C@@H]2C(=O)NC[C@H](O)c2ccccc2)cc1"
  Assay value: 0.11
- Compound: "CCOC(=O)C[C@H]1[C@H](OC(=O)c2cc3ccccc3oc2=O)[C@@H](NC(=O)Cc2ccc(OC)cc2)c2cc(OCCCO)ccc2N1C(=O)Cc1ccc(OC)cc1"
  Assay value: 0.0522
- Compound: "COC(=O)[C@]1(Cc2ccccc2N=[N+]=[N-])N=C(c2ccc(OCCCO)cc2)O[C@@H]1c1ccccc1CN=[N+]=[N-]"
  Assay value: 0.169
- Compound: "COCCCNC(=O)[C@@]1(Cc2ccccc2I)c2ccccc2C(=O)N(Cc2ccccc2OC)[C@H]1c1ccc(CO)cc1"
  Assay value: -0.134
- Compound: "C=CC[C@@]1(C(=O)NCCCOC)N=C(c2ccc(OCCCO)cc2)O[C@@H]1c1ccccc1CN=[N+]=[N-]"
  Assay value: 0.518
